All values here come from patent US20240270821A1.

- assay-target: T1, human GIP receptor (human) (UniProt P48546)
- T1 sequence (looked up): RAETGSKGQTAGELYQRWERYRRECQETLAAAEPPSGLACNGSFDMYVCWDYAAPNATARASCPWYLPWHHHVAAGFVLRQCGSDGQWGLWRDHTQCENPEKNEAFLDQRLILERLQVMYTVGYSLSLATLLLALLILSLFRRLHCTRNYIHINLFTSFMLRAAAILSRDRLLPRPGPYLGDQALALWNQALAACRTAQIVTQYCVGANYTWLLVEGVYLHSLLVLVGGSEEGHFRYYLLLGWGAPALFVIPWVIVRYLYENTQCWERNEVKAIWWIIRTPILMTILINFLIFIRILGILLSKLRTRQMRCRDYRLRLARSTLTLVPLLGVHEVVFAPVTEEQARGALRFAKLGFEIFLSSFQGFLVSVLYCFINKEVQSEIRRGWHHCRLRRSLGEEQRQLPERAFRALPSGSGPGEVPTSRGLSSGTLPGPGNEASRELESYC
- assay-info: cell-based or functional assay
Non-standard residues stand in square brackets, D forms with d. No end group written: not given here. αMeL = CC(C)C[C@](C)(N)C(=O)O; Aib = CC(C)(N)C(=O)O
attribute-measured: cAMP Rel EC50 (1% HSA) (nM)
Your answer should be a plain number; it is taken to be in nM.

Find the measured cAMP Rel EC50 (1% HSA) of YXQGTFTSDXSQXLDKKAQXAFIEYLLEAGPSSGAPPPSGS (synthetic construct; SITE 2: note = 2-Aminoisobutyric Acid; SITE 10: note = 3-(4-Pyridyl)-L-alanine; SITE 13: note = alpha-methyl-leucine; SITE 17: note = Lysine is chemically modified through conjugation of the epsilon-amino group of the Lysine side chain with (2-[2-(2-Amino-ethoxy)-ethoxy]-acetyl)) [Example 820] and report it.
17.5

Find the measured cAMP Rel EC50 (1% HSA) of Y[Aib]QGTFTSDYSI[αMeL]LDKQAAKAFVEWLLAGGPSSGEPPPSEG-NH2 (not fully specified (residue 20)) [Example 305] and report it.
92.4

Find the measured cAMP Rel EC50 (1% HSA) of YXQGTXTSDXSIXLDKKAQXXFIEYLSEGGPSSGEPPPEGSEE (synthetic construct; SITE 2: note = 2-Aminoisobutyric Acid; SITE 6: note = alpha-methyl-2-fluoro-L-phenylalanine; SITE 10: note = 3-(4-Pyridyl)-L-alanine; SITE 13: note = alpha-methyl-leucine; SITE 17: note = Lysine is chemically modified through conjugation of the epsilon-amino group of the Lysine) [Example 651] and report it.
6.3

Find the measured cAMP Rel EC50 (1% HSA) of YXQGTXTSDXXIXLDXKAAXEFIEXLIEGGPSSGAPPPSGGGE (synthetic construct; SITE 2: note = 2-Aminoisobutyric Acid; SITE 6: note = alpha-methyl-2-fluoro-L-phenylalanine; SITE 10: note = 3-(4-Pyridyl)-L-alanine; SITE 11: note = alpha-methyl-L-serine; SITE 13: note = alpha-methyl-leucine; SITE 16: note = L-ornithine; SITE 17: note = Lysine is chemically mo) [Example 745] and report it.
1.36

Find the measured cAMP Rel EC50 (1% HSA) of YXQGTFTSDXSQXLDXKAQXAFIQXLIEGGPSSGAPPPSGSEEE (non-natural residues, acylated Lys (γGlu-C18 diacid), C-terminal amide; synthetic construct; SITE 2: note = 2-Aminoisobutyric Acid; SITE 10: note = 3-(4-Pyridyl)-L-alanine; SITE 13: note = alpha-methyl-leucine; SITE 16: note = L-ornithine; SITE 17: note = Lysine is chemically modified through conjugation of the epsilon-amino group of the Lysine side chain with D-Glutami) [Example 1073] and report it.
15.7
